All figures here come from ChEMBL document CHEMBL3988442.

System: Mycobacterium tuberculosis
measurementProtocol: Cornell - Phenotypic assay to identify agents that inhibit growth of Mycobacterium tuberculosis
Type: functional
Parameters: scale not given: direction of the effect not stated beside the values
assaySetup: 10 mM as filed; unlikely as a test dose
Hit rate of the full screen: of about 53,000 compounds, about 900 (1.7%) showed an effect of 50% or more. This excerpt belongs to a sample that is enriched for strong results.
Items are presented alongside their recorded Percent Effect.
Give just the number in %; leave the unit off.

// known answers, use as guide
>  <compound>
O=C1CC(N2CCN(c3ccccc3O)CC2)C(=O)N1Cc1cccs1 (centres undefined)

>  <observedMeasurement>
63.35

$$$$
>  <compound>
Cc1cc(C(=O)NC2CCN(CC(N)=O)CC2)nn1C(C)(C)C

>  <observedMeasurement>
11.5

$$$$
>  <compound>
CC(=O)Nc1nc(C(=O)NCc2ccc(N3CCCC3)nc2)cs1

>  <observedMeasurement>
-0.1463

$$$$

Retrieve Percent Effect on Mycobacterium tuberculosis; query COCCN1C(=O)CC(N2CCN(c3ccc(F)cc3)CC2)C1=O (centres undefined) 4.981

Name the recorded Percent Effect of Cc1nnc2ccc(N3CCC4(CCOC4)C3)nn12 (centres undefined) , assay system Mycobacterium tuberculosis. 16.18

// fetch Percent Effect for Cn1nccc1-c1ccc2nc(C3CCN(CC4CC4)CC3)nn2c1.O=C(O)C(F)(F)F.O=C(O)C(F)(F)F ; system: Mycobacterium tuberculosis -10.01

Look up and report measured Percent Effect (Mycobacterium tuberculosis) for the following compound: CCCN1C(=O)CC(N2CCN(c3ccc(F)cc3)CC2)C1=O (centres undefined) -5.623

With Mycobacterium tuberculosis as the test system, provide measured Percent Effect for this compound: O=S(=O)(c1cccnc1)N1CCCCC1CCN1CCOCC1 (centres undefined) -15.47

Write down the reported Percent Effect (system: Mycobacterium tuberculosis) of Cc1noc(C)c1CN1CCOCC12CCN(c1nccs1)CC2.O=C(O)C(F)(F)F -2.189

Find the measured Percent Effect of C[S+]([O-])c1nncn1CC(=O)c1ccc2c(c1)CCO2 (centres undefined) with Mycobacterium tuberculosis as test system. 2.009

Please report the measured Percent Effect for O=C1CC(N2CCN(c3ccc(F)cc3)CC2)C(=O)N1Cc1cccs1 (centres undefined) tested on Mycobacterium tuberculosis. 42.8

With Mycobacterium tuberculosis as the test system, provide measured Percent Effect for this compound: C[S+]([O-])c1nncn1CC(=O)c1cccc(Cl)c1 (centres undefined) 12.76

Provide Percent Effect, tested on Mycobacterium tuberculosis, for FC(F)c1nnc2ccc(N3CCC4(CCCCC4)C3)nn12 . 52.01

With Mycobacterium tuberculosis as the test system, provide measured Percent Effect for this compound: Cc1cn2nc(Sc3nnnn3C)sc2n1 -10.32

Fetch value of Percent Effect on Mycobacterium tuberculosis for COCCN1C(=O)CC(N2CCN(c3ccc(OC)cc3)CC2)C1=O (centres undefined) . 55.38

Lab note: Mycobacterium tuberculosis assay, enter Percent Effect for Nc1nccc(C2CN(Cc3ccc(-c4ccccc4C(=O)O)o3)C2)n1 here 40.18

Enter Percent Effect (test system Mycobacterium tuberculosis) for CC(C)CN1C(=O)CC(N2CCN(c3ccc(F)cc3)CC2)C1=O (centres undefined) 12.43

Determine reported Percent Effect for CC(C)(C)c1n[nH]cc1CNC1CCC(OCC(F)(F)F)CC1.Cl (centres undefined) ; test system: Mycobacterium tuberculosis. -6.883

# lookup: Mycobacterium tuberculosis Percent Effect, key = O=C(C1CCC1)N1CCCn2nc(CNc3ncccn3)cc2C1 5.205

Fill in Percent Effect for O=C1CC(N2CCN(c3ccc(O)cc3)CC2)C(=O)N1Cc1cccs1 (centres undefined) tested with Mycobacterium tuberculosis. 104.3
